Tested target: human integrin αvβ3 (human, UniProt P06756 31-992; P05106 27-718, limits assumed)
Sequence (P06756 31-992 limits assumed, chain 1 of 2): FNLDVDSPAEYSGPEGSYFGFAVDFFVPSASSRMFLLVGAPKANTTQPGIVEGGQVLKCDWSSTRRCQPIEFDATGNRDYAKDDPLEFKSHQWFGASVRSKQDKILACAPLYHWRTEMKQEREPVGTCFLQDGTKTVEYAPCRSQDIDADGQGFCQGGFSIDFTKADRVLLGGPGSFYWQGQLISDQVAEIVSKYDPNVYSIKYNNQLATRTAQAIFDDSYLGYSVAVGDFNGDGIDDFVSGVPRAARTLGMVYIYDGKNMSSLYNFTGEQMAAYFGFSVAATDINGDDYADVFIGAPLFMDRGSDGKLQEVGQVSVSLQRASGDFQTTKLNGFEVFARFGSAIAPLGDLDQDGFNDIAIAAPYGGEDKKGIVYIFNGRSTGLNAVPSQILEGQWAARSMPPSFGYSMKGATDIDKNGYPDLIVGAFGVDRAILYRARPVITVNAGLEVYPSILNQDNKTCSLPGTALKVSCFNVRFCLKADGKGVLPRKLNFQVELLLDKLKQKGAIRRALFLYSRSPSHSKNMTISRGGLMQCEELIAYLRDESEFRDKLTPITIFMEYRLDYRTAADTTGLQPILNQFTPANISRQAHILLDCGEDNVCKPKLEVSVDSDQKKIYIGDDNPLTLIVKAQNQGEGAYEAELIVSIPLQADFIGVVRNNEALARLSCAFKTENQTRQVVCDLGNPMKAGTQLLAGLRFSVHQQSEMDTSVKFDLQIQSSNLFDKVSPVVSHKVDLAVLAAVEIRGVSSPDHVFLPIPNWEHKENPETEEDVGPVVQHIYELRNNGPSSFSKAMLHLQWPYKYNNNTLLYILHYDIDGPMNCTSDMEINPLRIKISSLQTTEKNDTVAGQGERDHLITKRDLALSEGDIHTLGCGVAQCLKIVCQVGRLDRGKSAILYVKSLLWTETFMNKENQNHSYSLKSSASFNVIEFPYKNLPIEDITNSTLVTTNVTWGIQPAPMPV
Sequence (P05106 27-718 limits assumed, chain 2 of 2): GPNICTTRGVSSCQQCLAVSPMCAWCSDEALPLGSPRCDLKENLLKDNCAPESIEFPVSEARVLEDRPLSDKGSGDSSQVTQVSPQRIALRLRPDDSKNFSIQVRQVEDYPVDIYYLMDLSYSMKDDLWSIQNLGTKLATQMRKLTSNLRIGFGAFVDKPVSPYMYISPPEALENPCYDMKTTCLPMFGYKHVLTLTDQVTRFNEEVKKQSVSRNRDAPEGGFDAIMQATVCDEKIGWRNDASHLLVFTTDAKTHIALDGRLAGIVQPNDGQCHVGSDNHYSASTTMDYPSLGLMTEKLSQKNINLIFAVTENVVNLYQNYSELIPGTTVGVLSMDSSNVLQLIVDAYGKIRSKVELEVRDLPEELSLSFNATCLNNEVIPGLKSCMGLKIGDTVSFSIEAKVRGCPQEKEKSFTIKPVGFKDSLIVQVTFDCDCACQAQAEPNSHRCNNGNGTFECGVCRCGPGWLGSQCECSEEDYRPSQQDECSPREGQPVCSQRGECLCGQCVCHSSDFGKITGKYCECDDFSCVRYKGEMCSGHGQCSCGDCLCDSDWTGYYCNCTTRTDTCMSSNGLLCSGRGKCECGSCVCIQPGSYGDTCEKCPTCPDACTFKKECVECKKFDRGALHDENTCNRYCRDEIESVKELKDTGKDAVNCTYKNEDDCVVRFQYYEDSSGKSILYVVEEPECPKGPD
Run description: human FP direct binding; n=2
Numbered stars: 1 amine (or outer) side, 2 acyl side, 3 side chain; on linkers, the order of the positions; unused ones are H or OH. Bridge positions count the residues as written; N and C are the ends. Square brackets hold non-standard residues; d marks the D form. Ends that are not written are not given here. TBMB = c1c(C[*:1])cc(C[*:3])cc1C[*:2]; Fl = fluorescein; Sar = CNCC(=O)O
This section presents binders with their documented Kd values.
Readout kind: Kd (nM)

INSERT INTO measurements (binder, result_units, measured) VALUES
  ('Ac-CILRPNCDLDGRCA[Sar][Sar][Sar][Sar][Sar][Sar]K (linker 1-7-13 via TBMB; not fully specified (residue 21); also: Fl on the C-terminal K, Fluorescent bicyclic peptide) [BCY2577]', 'nM', 2),
  ('Fl-G[Sar][Sar][Sar][Sar][Sar]ACLDHMECRGDMDC (linker 8-14-20 via TBMB, Fluorescent bicyclic peptide) [BCY2573]', 'nM', 1);
